In what follows, each item is paired with its IC50 for UniProt:Q99705.
Sequence (Q99705 whole entry): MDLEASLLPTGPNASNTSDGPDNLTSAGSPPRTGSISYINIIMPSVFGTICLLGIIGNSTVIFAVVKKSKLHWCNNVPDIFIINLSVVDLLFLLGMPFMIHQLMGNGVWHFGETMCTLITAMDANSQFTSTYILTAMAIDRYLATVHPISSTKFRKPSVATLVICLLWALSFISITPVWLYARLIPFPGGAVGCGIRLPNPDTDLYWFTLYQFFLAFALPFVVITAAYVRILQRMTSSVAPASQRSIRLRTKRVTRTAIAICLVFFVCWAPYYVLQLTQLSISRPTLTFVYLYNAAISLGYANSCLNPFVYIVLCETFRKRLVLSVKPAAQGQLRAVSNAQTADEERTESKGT
Your answer should be a plain number; it is taken to be in nM.

q: Which IC50 reading was recorded for the compound `Cc1cc(CN2CCC(O)CC2)ccc1C(=O)Cn1ncc(OCc2ccccc2)cc1=O` ?
a: 15

q: Okay, and `Cc1cc(CN2CCC(O)CC2)ccc1C(=O)Cn1ccc(OCc2ccccc2)cc1=O` ?
a: 19

q: Okay, and `COc1ccc(COc2ccn(CC(=O)c3ccc(CN4CCCC4)cc3C)c(=O)c2)nc1` ?
a: 26

q: Okay, and `COc1ccc(COc2ccn(CC(=O)c3ccc(CN4CCC(O)CC4)cc3C)c(=O)c2)nc1` ?
a: 53
